Entry source: ChEMBL document CHEMBL3621131

# tgt: M-phase inducer phosphatase 1 (Homo sapiens)
# Sequence (P30304 whole entry): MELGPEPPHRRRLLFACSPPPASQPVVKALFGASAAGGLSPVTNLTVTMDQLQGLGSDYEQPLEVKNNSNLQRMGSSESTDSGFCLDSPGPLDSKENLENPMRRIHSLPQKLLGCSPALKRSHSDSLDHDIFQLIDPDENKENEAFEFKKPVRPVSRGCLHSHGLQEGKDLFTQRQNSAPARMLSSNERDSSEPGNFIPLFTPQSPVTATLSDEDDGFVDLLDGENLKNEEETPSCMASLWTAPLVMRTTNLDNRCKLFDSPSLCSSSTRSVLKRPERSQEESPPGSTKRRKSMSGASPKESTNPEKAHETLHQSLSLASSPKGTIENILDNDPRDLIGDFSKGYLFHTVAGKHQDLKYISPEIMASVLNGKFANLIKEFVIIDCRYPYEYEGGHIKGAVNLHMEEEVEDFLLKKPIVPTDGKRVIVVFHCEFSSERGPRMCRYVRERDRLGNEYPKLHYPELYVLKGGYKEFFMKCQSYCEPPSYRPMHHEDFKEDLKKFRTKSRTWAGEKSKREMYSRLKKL
readout.label: IC50

given.smiles | result
COc1ccc2c(CSC3=CC(=O)c4ccccc4C3=O)cc(=O)oc2c1 | ≤ 9 µM

###

# System: NCI-H460
# method.description: Antiproliferative activity against human NCI-H460 cells assessed as growth inhibition
# Format: functional, cell-based
readout.label: IC50

given.smiles | result
C/C(=N/NC(=O)c1cc2ccccc2oc1=O)c1cccnc1 | 10 µM
